- Tested on: E. coli
- procedureDetails: AK assay 384-well format, Prestwick library screening
- Format: cell-based, Escherichia coli
- assayContext: Escherichia coli, 3 h; planktonic E. coli; 50 μM final drug concentration; 384-well; cutoff for positive-scoring molecules 3-fold increase; read-out: AK-based Prestwick Library Screening Results: E. coli (increase in extracellular AK activity)
Counter-ions that a name gives are not always drawn.
recordedEndpoint: fold induction at 50 µM
Enter the number alone.

molecule: COc1ccc(CCN2CCC(Nc3nc4ccccc4n3Cc3ccc(F)cc3)CC2)cc1 [Astemizole]
fold induction at 50 µM: 1.3

Look up and report measured fold induction at 50 µM for this entry: COc1cc2nc(N(C)CCCNC(=O)C3CCCO3)nc(N)c2cc1OC (centres unmarked) [Alfuzosin hydrochloride]
0.5

Quick one: give measured fold induction at 50 µM for CCOC(=O)NNc1nncc2ccccc12 [Todralazine hydrochloride]
1.3

Indicate the recorded fold induction at 50 µM value for this molecule: CC/C(=C(\c1ccccc1)c1ccc(OCCN(C)C)cc1)c1ccccc1 [Tamoxifen citrate]
1.9

Supply measured fold induction at 50 µM of CCN(CC)CCNC(=O)c1cc(Cl)c(N)cc1OC [Metoclopramide monohydrochloride] in your reply.
1.3

Find the measured fold induction at 50 µM of O=C1O[C@H]([C@@H](O)CO)C(O)=C1O [Ascorbic acid] and report it.
0.5

Name the recorded fold induction at 50 µM of the molecule listed here: CCn1cc(C(=O)O)c(=O)c2cc(F)c(N3CCNC(C)C3)c(F)c21 (centres unmarked) [Lomefloxacin hydrochloride]
26.8

For the molecule CCCCOc1cc(C(=O)OCCN(CC)CC)ccc1N [Benoxinate hydrochloride] , give its measured fold induction at 50 µM value.
1.3

Entry CC(=O)OCC(=O)[C@@]1(O)CC[C@H]2[C@@H]3CCC4=CC(=O)CC[C@]4(C)[C@@]3(F)[C@@H](O)C[C@@]21C [Fludrocortisone acetate] needs its fold induction at 50 µM filled in; supply it.
1.3

Give a short answer stating reported fold induction at 50 µM for Cc1ccc(Cl)c(Nc2ccccc2C(=O)O)c1Cl .
1.1

Provide fold induction at 50 µM value for the following molecule: CC(=O)OCC(=O)[C@@]1(O)[C@H](C)C[C@H]2[C@@H]3CCC4=CC(=O)C=C[C@]4(C)[C@@]3(F)[C@@H](O)C[C@@]21C [Dexamethasone acetate]
1.4

For CN1CCN(CCCN2c3ccccc3Sc3ccc(C(F)(F)F)cc32)CC1 [Trifluoperazine dihydrochloride] , write its fold induction at 50 µM.
1.7

Look up and report measured fold induction at 50 µM for this entry: O=C1C(CC[S+]([O-])c2ccccc2)C(=O)N(c2ccccc2)N1c1ccccc1 (centres unmarked) [Sulfinpyrazone]
1.3

Please look at this molecule and report its fold induction at 50 µM: Cc1c(Cl)cccc1Nc1ccccc1C(=O)O [Tolfenamic acid]
1

Identify fold induction at 50 µM associated with the molecule Cc1scc2c1N(C(=O)CN1CCN(C)CC1)c1ccccc1NC2=O [Telenzepine dihydrochloride]
1.5

Could you please provide reported fold induction at 50 µM for Cc1cccc(Nc2ccccc2C(=O)O)c1C [Mefenamic acid] ? Thanks!
0.9

Given the molecule CN(C)CCCN1c2ccccc2Sc2ccc(Cl)cc21 [Chlorpromazine hydrochloride] , write its reported fold induction at 50 µM.
1.4

---

Each record here notes measured fold induction at 50 µM.
- Tested on: E. cloacae
- procedureDetails: AK assay 384-well format, Prestwick library screening
- Format: cell-based, Enterobacter cloacae
- assayContext: Enterobacter cloacae, 3 h; 50 μM final drug concentration; cutoff for positive-scoring molecules 3-fold increase; read-out: AK-based Prestwick Library Screening Results, E. cloacae (fold increase in extracellular AK activity)
Where a name gives a salt, the structure may show the parent alone.
A bare number is all that is needed in reply.

molecule: CCN1CCC[C@H]1CNC(=O)c1c(OC)ccc(Br)c1OC [Remoxipride Hydrochloride]
fold induction at 50 µM: 0.8
--
molecule: CCC1NC(=O)c2cc(S(N)(=O)=O)c(Cl)cc2N1 (stereo not shown)
fold induction at 50 µM: 0.4
--
molecule: COc1cc(CNC(=O)CCCC/C=C/C(C)C)ccc1O
fold induction at 50 µM: 1.5
--
molecule: CCN(CC)CCNC(=O)c1cc(Br)c(N)cc1OC [Bromopride]
fold induction at 50 µM: 1.3
--
molecule: O=C(O)CN(CCN(CC(=O)O)CC(=O)O)CCN(CC(=O)O)CC(=O)O
fold induction at 50 µM: 1.5

Check the records and state fold induction at 50 µM for NS(=O)(=O)c1cc(C(=O)O)cc(N2CCCC2)c1Oc1ccccc1 [Piretanide]
0.4

---

- Tested on: A. baumannii strain 98-37-09
- procedureDetails: AK assay 384-well format, Prestwick library screening
- Assay type: cell-based, Acinetobacter baumannii
- assayContext: Acinetobacter baumannii, 983709, 3 h, planktonic A. baumannii; 50 μM final drug concentration; 384-well; […]; read-out: AK-based Prestwick Library Screening Results: A. baumannii (increase in extracellular AK activity)
Structures can show the parent of a compound that is named as a salt.
This listing pairs compounds with measured fold induction at 50 µM.
Give the figure only, with no unit attached.

In the examples that follow, each entry is paired with its recorded fold induction at 50 µM.
compound: C1CCC(C(CC2CCCCN2)C2CCCCC2)CC1 (centres unmarked) [Perhexiline maleate]
recordedEndpoint: fold induction at 50 µM
testResult: 3.4

compound: COC(=O)C1=CCCN(C)C1 [Arecoline hydrobromide]
recordedEndpoint: fold induction at 50 µM
testResult: 0.4

compound: C[N+]1(C)CCC(=C(c2ccccc2)c2ccccc2)CC1 [Diphemanil methylsulfate]
recordedEndpoint: fold induction at 50 µM
testResult: 1.3

compound: COP(=O)(OC)C(O)C(Cl)(Cl)Cl (centres unmarked) [Trichlorfon]
recordedEndpoint: fold induction at 50 µM
testResult: 0.9

Continue with the next compound.
Identify measured fold induction at 50 µM associated with CCC(=O)O[C@H]1CC[C@H]2[C@@H]3CCC4=CC(=O)CC[C@]4(C)[C@H]3CC[C@]12C [Testosterone propionate]
0.5

---

Some molecules, each annotated with its measured fold induction at 50 µM.
- Test system: S. aureus strain USA300-0114
- procedureDetails: AK assay 384-well format, Prestwick library screening
- Assay type: cell-based, Staphylococcus aureus
- assayContext: Staphylococcus aureus, USA300, 3 h; planktonic S. aureus; 50 μM final drug concentration; positive cutoff 3-fold increase; read-out: AK-based Prestwick library screening result, S. aureus (fold increase in extracellular AK activity)
Structures can show the parent of a compound that is named as a salt.
I only need the number, thanks.

Known results for molecules:
molecule: CC(C)(Oc1ccc(C2CC2(Cl)Cl)cc1)C(=O)O (stereo not shown) [Ciprofibrate]
fold induction at 50 µM: 0.7
//
molecule: OCCN1CCN(CC/C=C2/c3ccccc3Sc3ccc(Cl)cc32)CC1 [Zuclopenthixol hydrochloride]
fold induction at 50 µM: 0.7
//
molecule: CO/N=C(\C(=O)N[C@@H]1C(=O)N2C(C(=O)O)=C(C[N+]3(C)CCCC3)CS[C@H]12)c1csc(N)n1 [Cefepime hydrochloride]
fold induction at 50 µM: 3.1

Tell me fold induction at 50 µM reported for Nc1ccn([C@H]2CC[C@@H](CO)O2)c(=O)n1
1.1

---

- System: S. aureus strain USA300-0114
- procedureDetails: AK assay 384-well format, Prestwick library screening
- Format: cell-based, Staphylococcus aureus
- assayContext: Staphylococcus aureus, USA300, 3 h, 50 μM final drug concentration; […]; read-out: AK-based Prestwick Library Screening Results, S. aureus (fold increase in extracellular AK activity)
Reported fold induction at 50 µM values for a set of compounds

compound: COc1ccccc1OCC(O)CO (centres unmarked) [Guaifenesin]
fold induction at 50 µM: 1.2
//
compound: CC1(C)NC(=O)N(c2ccc([N+](=O)[O-])c(C(F)(F)F)c2)C1=O [Nilutamide]
fold induction at 50 µM: 1.3
//
compound: C[C@]12CC[C@H]3[C@@H](CC[C@]4(O)C[C@@H](O)CC[C@]34C=O)[C@@]1(O)CC[C@@H]2C1=CC(=O)OC1 [Strophanthidin]
fold induction at 50 µM: 1.3

Let me know recorded fold induction at 50 µM for COc1cc([C@@H]2c3cc4c(cc3[C@H](O)[C@H]3COC(=O)[C@H]23)OCO4)cc(OC)c1OC [Podophyllotoxin] , thanks.
1

For the compound CC(=O)N(CC(O)CN(C(C)=O)c1c(I)c(C(=O)NCC(O)CO)c(I)c(C(=O)NCC(O)CO)c1I)c1c(I)c(C(=O)NCC(O)CO)c(I)c(C(=O)NCC(O)CO)c1I (centres unmarked) [Iodixanol] , give its reported fold induction at 50 µM.
1.3

---

- Tested on: E. faecium
- procedureDetails: AK assay 384-well format, Prestwick library screening
- Type: cell-based, Enterococcus faecium
- assayContext: Enterococcus faecium, 3 h; 50 μM final drug concentration; 384-well format; cutoff for positive-scoring molecules 3-fold increase; read-out: AK-based Prestwick Library Screening Results, E. faecium (increase in extracellular AK activity)
Where a name gives a salt, the structure may show the parent alone.
recordedEndpoint: fold induction at 50 µM
// print number alone

molecule: O=c1[nH]c(=O)n([C@H]2C[C@H](O)[C@@H](CO)O2)cc1I [Idoxuridine]
tgt: E. faecium
fold induction at 50 µM: 1

molecule: COC(=O)Nc1nc2ccc(C(=O)c3cccs3)cc2[nH]1 [Nocodazole]
tgt: E. faecium
fold induction at 50 µM: 0.9

molecule: COc1ccc([C@@H]2CC(=O)c3c(O)cc(O)cc3O2)cc1O [Hesperetin]
tgt: E. faecium
fold induction at 50 µM: 0.9

molecule: O=C(Nc1ccc([N+](=O)[O-])cc1Cl)c1cc(Cl)ccc1O [Niclosamide]
tgt: E. faecium
fold induction at 50 µM: 0.1

molecule: Cc1onc(-c2ccccc2Cl)c1C(=O)N[C@@H]1C(=O)N2[C@@H]1SC(C)(C)[C@@H]2C(=O)O [Cloxacillin sodium salt]
tgt: E. faecium
fold induction at 50 µM: 1

Give fold induction at 50 µM for Nc1ccc(S(=O)(=O)Nc2ncccn2)cc1 [Sulfadiazine] tested on E. faecium.
0.8

For E. faecium, give the measured fold induction at 50 µM of the entry COc1ccc(C(=O)NCc2cccnc2)cc1C(=O)NCc1cccnc1 [Picotamide monohydrate]
0.9

Fill: fold induction at 50 µM (E. faecium) for this molecule CN(C)C(=N)N=C(N)N [Metformin hydrochloride]
0.8

State the measured fold induction at 50 µM (E. faecium) of CC(=O)CC(c1ccc([N+](=O)[O-])cc1)c1c(O)c2ccccc2oc1=O (stereo not shown) [Acenocoumarol]
1

Provide fold induction at 50 µM, tested on E. faecium, for COc1ccccc1OCC(O)COC(N)=O (stereo not shown) [Methocarbamol] .
0.9

# return fold induction at 50 µM for CCN(CC)CCOC(=O)c1ccc(N)cc1 [Procaine hydrochloride] , test system: E. faecium
0.9

Write down the reported fold induction at 50 µM (system: E. faecium) of [H]/N=C(/N)NS(=O)(=O)c1ccc(N)cc1 [Sulfaguanidine]
1

Provide fold induction at 50 µM, tested on E. faecium, for CC1=C(/C=C/C(C)=C/C=C/C(C)=C/C(=O)O)C(C)(C)CCC1 [Retinoic acid] .
1

Give fold induction at 50 µM for C#C[C@]1(O)CC[C@H]2[C@@H]3CCC4=CCCC[C@@H]4[C@H]3CC[C@@]21C [Lynestrenol] tested on E. faecium.
0.9

Please tell me the measured fold induction at 50 µM for Cn1c(=O)c2c(ncn2CCO)n(C)c1=O [Etofylline] ; system: E. faecium.
1

Answer with fold induction at 50 µM of C1CCc2nnnn2CC1 [Pentylenetetrazole] measured for E. faecium.
1

Write fold induction at 50 µM of CN(C)C/C=C(/c1ccc(Br)cc1)c1cccnc1 [Zimelidine dihydrochloride monohydrate] ; system used: E. faecium
0.9

Supply fold induction at 50 µM measured with E. faecium for CC(C)NCC(O)COc1cccc2[nH]ccc12 (stereo not shown) [Pindolol] .
1

Consider the molecule CCCCOc1ccc(C(=O)CCN2CCCCC2)cc1 [Dyclonine hydrochloride] tested on E. faecium; state its fold induction at 50 µM.
1
